Structures can show the parent of a compound that is named as a salt.
Known melting point of a selection of compounds
parameterMeasured: melting point

>  <compound>
O=c1c2cc(-c3ccccn3)oc2ccn1-c1ccc2c(cnn2CCN2CCCC2)c1 (as salt: hydrochloride)

>  <result>
50 to 52 °C

$$$$
>  <compound>
Cc1ccc(-c2cc3c(=O)n(-c4ccc5c(cnn5CCN5CCCC5)c4)ccc3o2)cc1.Cl

>  <result>
262 to 264 °C

$$$$
>  <compound>
Cc1ccc(-c2cc3c(=O)n(-c4ccc5c(cnn5CCN5CCCC5)c4)ccc3o2)c(F)c1.Cl

>  <result>
268 to 270 °C

$$$$
>  <compound>
Cl.O=c1c2cc(-c3ccc(Cl)cc3)oc2ccn1-c1ccc2c(cnn2CCN2CCNCC2)c1

>  <result>
298 to 300 °C (dec.)

$$$$
>  <compound>
Cl.O=c1c2cc(-c3ccccc3F)oc2ccn1-c1ccc2c(cnn2CCN2CCCC2)c1

>  <result>
264 to 266 °C

$$$$
>  <compound>
O=c1c2cc(-c3ccc(Cl)cn3)oc2ccn1-c1ccc2c(cnn2CCN2CCCC2)c1 (as salt: hydrochloride) [Example 17, dihydrochloride]

>  <result>
268 to 270 °C

$$$$
>  <compound>
Cl.O=c1c2cc(-c3ccc(Cl)cc3Cl)oc2ccn1-c1ccc2c(cnn2CCN2CCCC2)c1

>  <result>
258 to 260 °C

$$$$
>  <compound>
Cl.O=c1c2cc(-c3ccc(F)cc3Cl)oc2ccn1-c1ccc2c(cnn2CCN2CCCC2)c1

>  <result>
140 to 142 °C

$$$$

Where do these numbers come from? They come from patent US8101632B2.
